# credit: patent US9346815B2

# Test system: JAK1-dependent STAT6 phosphorylation downstream of IL-13 stimulation in TF-1 human erythroleukemia cells
# RUN DESCRIPTION: JAK1 pathway assay in TF-1 cells (IL-13-pSTAT6, MSD)
# Format: cell-based
# EXPERIMENTAL CONTEXT: Homo sapiens, TF-1, TF-1 cells, read-out: IL13-pSTAT6 EC50_TF-1
RECORDED METRIC: pEC50
When answering, recall that pEC50 equals minus log10 of the concentration in mol/L, and write that number alone.

For CN1C[C@H]2CN(C(=O)Cn3cc(NC(=O)c4cnn5cccnc45)c(-c4cc(Cl)ccc4OC(F)F)n3)C[C@@]2(c2ccccc2)C1 [Example 43] , what is its reported pEC50? 7.82

For O=C(Nc1cn(CC(=O)N2CCC[C@H]2CO)nc1-c1cc(Cl)ccc1OC(F)F)c1cnn2cccnc12 [Example 268] , what is its reported pEC50? 8.26

For CN1C[C@@H]2CN(Cc3nc(-c4cc(Cl)ccc4OC(F)F)c(NC(=O)c4cnn5cccnc45)s3)C[C@@H]2C1 [Example 262] , what is its reported pEC50? 7.20

For CCOC(=O)CNCCn1cc(NC(=O)c2cnn3cccnc23)c(-c2cc(Cl)ccc2OC(F)F)n1 [Example 306] , what is its reported pEC50? 8.21

For N#CC1(c2ccccc2)CCN(C(=O)Cn2cc(NC(=O)c3cnn4cccnc34)c(-c3cc(Cl)ccc3OC(F)F)n2)CC1 [Example 281] , what is its reported pEC50? 8.66

For O=C(Nc1cn(CC(=O)N2CCC(CO)CC2)nc1-c1cc(Cl)ccc1OC(F)F)c1cnn2cccnc12 [Example 274] , what is its reported pEC50? 8.49

For CN1C[C@@H]2CN(C(=O)c3nc(-c4cc(Cl)ccc4OC(F)F)c(NC(=O)c4cnn5cccnc45)s3)C[C@@H]2C1 [Example 264] , what is its reported pEC50? 7.70
